Tested Target: HLA-A*26:01
Method Notes: IEDB peptide-MHC binding, purified MHC/direct/fluorescence; filed as Kd, often an IC50 or EC50 that approximates it; bounds were set here for any values at or beyond the usual limits of such assays
Reported Conditions: source organism: Vibrio parahaemolyticus
Recorded Endpoint: Kd

Query block: Write down measured Kd (HLA-A*26:01) for this sequence. RTHTLRDAK
Result block: ≥ 20 µM

----------
Tested Target: HLA-A*69:01
Method Notes: IEDB peptide-MHC binding, purified MHC/competitive/fluorescence; filed as Kd, often an IC50 or EC50 that approximates it; bounds were set here for any values at or beyond the usual limits of such assays
Reported Conditions: source organism: Entamoeba histolytica HM-1:IMSS
pKd: −log10 of the molar value.
Recorded Endpoint: pKd

Query block: Write down measured pKd (HLA-A*69:01) for this sequence. WAKLLKQKW
Result block: ≤ 4.70
